Target: Estrogen receptor (Homo sapiens, UniProt Q92731+P03372)
Conditions: mcf7
Readings of IC50 for the listed compounds
Give the number; nM is assumed, so skip it.

Field: example entries. Status: answers known.
INSERT INTO assay_data (smiles_code, readout, value_unit, reported_result) VALUES
  ('O=C(c1ccc(OCCN2CCCCC2)cc1)c1c(Cc2ccc(O)cc2)sc2cc(O)ccc12', 'IC50', 'nM', 5),
  ('O=C(c1ccc(OCCN2CCCCC2)cc1)c1c(-c2cccc(O)c2)sc2cc(O)ccc12', 'IC50', 'nM', 3.2),
  ('COc1ccc2c(C(=O)c3ccc(OCCN4CCCCC4)cc3)c(-c3ccc(CO)cc3)sc2c1', 'IC50', 'nM', 600),
  ('CCSCc1ccc(-c2sc3cc(O)ccc3c2C(=O)c2ccc(OCCN3CCCCC3)cc2)cc1', 'IC50', 'nM', 100),
  ('O=C(c1ccc(OCCN2CCCCC2)cc1)c1c(-c2ccc(O)cc2)sc2ccc(O)cc12', 'IC50', 'nM', 100);

With those in mind, consider the next compound.
Inquiry: What IC50 value was documented for this compound, O=C(c1ccc(OCCN2CCCCC2)cc1)c1c(-c2ccc(O)cc2)sc2c(O)cccc12 ?
Reply text: 300
